- METHOD: Pharmacokinetics in ovariectomized female rats (plasma, Day 14)
- Format: in vivo, rat
- ASSAY_SETUP: rat, plasma; OVX female rats, PO, Day 14, 0.03 mg/kg, mean ± SD of n = 4
What Tmax was measured for each of the following?

Input line: Bench note: what Tmax did "N#Cc1ccc(N2CCC[C@@H]2[C@@H](O)C(F)(F)F)cc1C(F)(F)F" show?
Output line: 3.5 h

Input line: Name the recorded Tmax for "C[C@](O)(COc1ccc(C#N)cc1)C(=O)Nc1ccc(C#N)c(C(F)(F)F)c1" .
Output line: 2.6 h

---

- METHOD: Pharmacokinetics in Sprague Dawley rats, repeat oral administration for 15 days
- Format: in vivo, rat
- ASSAY_SETUP: female, Sprague-Dawley, rat, plasma, po, 3 mg/kg, SD rats, oral gavage, Day 1, 3 mg/kg, Female
ASSAY_METRIC: half-life (h)
Value expressed in h; do not type the unit.

Input line: Entry N#Cc1ccc(N2CCC[C@@H]2[C@@H](O)C(F)(F)F)cc1C(F)(F)F [Compound 102] has what half-life?
Output line: 4.8

---

- METHOD: Pharmacokinetics in Sprague Dawley rats, repeat oral administration for 15 days
- Assay type: in vivo, rat
- ASSAY_SETUP: male, Sprague-Dawley, rat, plasma, po, 3 mg/kg, SD rats, oral gavage, Day 1, 3 mg/kg, Male
ASSAY_METRIC: half-life (h)
Give a bare numeral; the unit h is implied.

Input line: Which half-life is listed for "N#Cc1ccc(N2CCC[C@@H]2[C@@H](O)C(F)(F)F)cc1C(F)(F)F" ?
Output line: 4.6

---

- METHOD: Pharmacokinetics in Sprague Dawley rats, repeat oral administration for 15 days
- Type: in vivo, rat
- ASSAY_SETUP: male, Sprague-Dawley, rat, plasma, po, 1 mg/kg, SD rats, oral gavage once daily, Day 15, 1 mg/kg, Male, n = 4
ASSAY_METRIC: AUC(0-inf) (ng·h/mL)
# output: bare number, implied unit ng·h/mL

Input line: AUC(0-inf) lookup needed for "N#Cc1ccc(N2CCC[C@@H]2[C@@H](O)C(F)(F)F)cc1C(F)(F)F" , thanks.
Output line: 297

---

- METHOD: Pharmacokinetics in Sprague Dawley rats, repeat oral administration for 15 days
- Assay type: in vivo, rat
- ASSAY_SETUP: female, Sprague-Dawley, rat, plasma, po, 10 mg/kg, SD rats, oral gavage, Day 1, 10 mg/kg, Female
- Procedure: The pharmacokinetics of Compound 102 following repeat oral administration for 15 days was evaluated in Sprague-Dawley rats. A total of 30 rats (15 males and 15 females) were divided into three dose groups (5 males/5 females). […] 50 μL of plasma was extracted with 250 μL of acetonitrile and the plasma concentration of Compound 102 was determined by an LC-MS/MS method. The plasma concentration time data were analyzed by a non-compartmental pharmacokinetic method using WinNonlin. […]
ASSAY_METRIC: half-life

Input line: What value of half-life has been recorded for this entry: "N#Cc1ccc(N2CCC[C@@H]2[C@@H](O)C(F)(F)F)cc1C(F)(F)F"
Output line: 5.6 h

---

- METHOD: Pharmacokinetics in Sprague Dawley rats, repeat oral administration for 15 days
- Format: in vivo, rat
- ASSAY_SETUP: male, Sprague-Dawley, rat, plasma, po, 10 mg/kg, SD rats, oral gavage, Day 1, 10 mg/kg, Male
ASSAY_METRIC: Tmax (h)
Dear colleague, please return just the value in h, with no unit written.

Input line: Given N#Cc1ccc(N2CCC[C@@H]2[C@@H](O)C(F)(F)F)cc1C(F)(F)F [Compound 102] , state its recorded Tmax.
Output line: 1.2

---

- METHOD: Pharmacokinetics in Sprague Dawley rats, repeat oral administration for 15 days
- Assay type: in vivo, rat
- ASSAY_SETUP: male, Sprague-Dawley, rat, plasma, po, 3 mg/kg, SD rats, oral gavage once daily, Day 15, 3 mg/kg, Male
ASSAY_METRIC: AUC(0-inf) (ng·h/mL)
Report the value in ng·h/mL with no unit label.

Input line: // lookup AUC(0-inf) for N#Cc1ccc(N2CCC[C@@H]2[C@@H](O)C(F)(F)F)cc1C(F)(F)F [Compound 102]
Output line: 893

---

- METHOD: Pharmacokinetics in orchidectomized male rats (plasma, Day 14)
- Format: in vivo
- ASSAY_SETUP: male, rat, po, 10 mg/kg, ORX male rats, Day 14, 10 mg/kg, read-out: AUC6
ASSAY_METRIC: AUC (ng·h/mL)
Express your answer in ng·h/mL, writing the number without its unit.

Input line: Which measured AUC value corresponds to N#Cc1ccc(N2CCC[C@@H]2[C@@H](O)C(F)(F)F)cc1C(F)(F)F [Compound 102] ?
Output line: 370

---

- METHOD: Pharmacokinetics in orchidectomized male rats (plasma, Day 14)
- Assay type: in vivo
- ASSAY_SETUP: rat, ORX male rats, PO, Day 14, 100 mg/kg
ASSAY_METRIC: Tmax (h)
Record the value in h, omitting the unit from your answer.

Input line: What value of Tmax has been recorded for this entry: "N#Cc1ccc(N2CCC[C@@H]2[C@@H](O)C(F)(F)F)cc1C(F)(F)F"
Output line: 3.5

---

- METHOD: Pharmacokinetics in Sprague Dawley rats, repeat oral administration for 15 days
- Type: in vivo, rat
- ASSAY_SETUP: male, Sprague-Dawley, rat, plasma, po, 3 mg/kg, SD rats, oral gavage once daily, Day 15, 3 mg/kg, Male
ASSAY_METRIC: Tmax
Include the unit right after the number.

Input line: Give the measured Tmax of "N#Cc1ccc(N2CCC[C@@H]2[C@@H](O)C(F)(F)F)cc1C(F)(F)F" .
Output line: 1.2 h

---

- METHOD: Pharmacokinetics in orchidectomized male rats (plasma, Day 14)
- Assay type: in vivo
- ASSAY_SETUP: male, rat, po, 0.03 mg/kg, ORX male rats, Day 14, 0.03 mg/kg, read-out: AUC6
ASSAY_METRIC: AUC (ng·h/mL)
Answer with a number only, understood to be in ng·h/mL.

Input line: For "N#Cc1ccc(N2CCC[C@@H]2[C@@H](O)C(F)(F)F)cc1C(F)(F)F" , what is its reported AUC?
Output line: 2

---

- METHOD: Pharmacokinetics in Sprague Dawley rats, repeat oral administration for 15 days
- Type: in vivo, rat
- ASSAY_SETUP: female, Sprague-Dawley, rat, plasma, po, 10 mg/kg, SD rats, oral gavage, Day 1, 10 mg/kg, Female; read-out: AUC24
ASSAY_METRIC: AUC (ng·h/mL)
Answer with a number only, understood to be in ng·h/mL.

Input line: Look up AUC: "N#Cc1ccc(N2CCC[C@@H]2[C@@H](O)C(F)(F)F)cc1C(F)(F)F"
Output line: 3960

---

- TESTED_TARGET: hAR (Homo sapiens, UniProt P10275)
- Sequence (P10275 whole entry): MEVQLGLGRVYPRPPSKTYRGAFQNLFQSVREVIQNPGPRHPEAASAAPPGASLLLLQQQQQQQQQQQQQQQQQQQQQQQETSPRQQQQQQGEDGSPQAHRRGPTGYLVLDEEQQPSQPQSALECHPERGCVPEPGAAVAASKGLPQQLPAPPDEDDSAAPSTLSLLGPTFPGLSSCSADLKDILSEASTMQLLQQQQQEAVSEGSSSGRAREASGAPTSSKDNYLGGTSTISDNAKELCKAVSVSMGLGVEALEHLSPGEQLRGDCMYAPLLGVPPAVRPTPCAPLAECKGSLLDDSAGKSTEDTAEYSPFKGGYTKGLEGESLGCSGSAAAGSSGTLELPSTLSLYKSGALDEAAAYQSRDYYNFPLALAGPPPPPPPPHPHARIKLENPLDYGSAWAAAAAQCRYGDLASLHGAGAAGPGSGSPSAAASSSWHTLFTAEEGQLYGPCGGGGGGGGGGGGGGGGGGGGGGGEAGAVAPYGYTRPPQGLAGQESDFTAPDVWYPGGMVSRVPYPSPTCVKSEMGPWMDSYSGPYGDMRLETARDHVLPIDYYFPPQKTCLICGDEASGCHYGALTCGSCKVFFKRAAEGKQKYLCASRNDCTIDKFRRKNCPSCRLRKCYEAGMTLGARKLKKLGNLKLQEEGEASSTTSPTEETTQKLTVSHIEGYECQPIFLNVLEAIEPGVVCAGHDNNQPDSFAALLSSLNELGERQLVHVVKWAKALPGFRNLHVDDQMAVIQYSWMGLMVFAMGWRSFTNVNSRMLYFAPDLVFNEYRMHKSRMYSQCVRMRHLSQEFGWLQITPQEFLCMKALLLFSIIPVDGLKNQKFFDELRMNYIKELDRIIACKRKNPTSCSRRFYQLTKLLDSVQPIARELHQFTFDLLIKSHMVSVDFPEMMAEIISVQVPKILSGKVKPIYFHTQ
- METHOD: cell-based
ASSAY_METRIC: EC50 (nM)
Response body: numeric value in nM, unit text excluded.

Input line: Suppose we examine the compound "N#Cc1ccc(N2CCC[C@@H]2[C@@H](O)C(F)(F)F)cc1C(F)(F)F" ; what EC50 value has been reported?
Output line: 3.1

---

- TESTED_TARGET: UniProtKB P06401
- Sequence (P06401 whole entry): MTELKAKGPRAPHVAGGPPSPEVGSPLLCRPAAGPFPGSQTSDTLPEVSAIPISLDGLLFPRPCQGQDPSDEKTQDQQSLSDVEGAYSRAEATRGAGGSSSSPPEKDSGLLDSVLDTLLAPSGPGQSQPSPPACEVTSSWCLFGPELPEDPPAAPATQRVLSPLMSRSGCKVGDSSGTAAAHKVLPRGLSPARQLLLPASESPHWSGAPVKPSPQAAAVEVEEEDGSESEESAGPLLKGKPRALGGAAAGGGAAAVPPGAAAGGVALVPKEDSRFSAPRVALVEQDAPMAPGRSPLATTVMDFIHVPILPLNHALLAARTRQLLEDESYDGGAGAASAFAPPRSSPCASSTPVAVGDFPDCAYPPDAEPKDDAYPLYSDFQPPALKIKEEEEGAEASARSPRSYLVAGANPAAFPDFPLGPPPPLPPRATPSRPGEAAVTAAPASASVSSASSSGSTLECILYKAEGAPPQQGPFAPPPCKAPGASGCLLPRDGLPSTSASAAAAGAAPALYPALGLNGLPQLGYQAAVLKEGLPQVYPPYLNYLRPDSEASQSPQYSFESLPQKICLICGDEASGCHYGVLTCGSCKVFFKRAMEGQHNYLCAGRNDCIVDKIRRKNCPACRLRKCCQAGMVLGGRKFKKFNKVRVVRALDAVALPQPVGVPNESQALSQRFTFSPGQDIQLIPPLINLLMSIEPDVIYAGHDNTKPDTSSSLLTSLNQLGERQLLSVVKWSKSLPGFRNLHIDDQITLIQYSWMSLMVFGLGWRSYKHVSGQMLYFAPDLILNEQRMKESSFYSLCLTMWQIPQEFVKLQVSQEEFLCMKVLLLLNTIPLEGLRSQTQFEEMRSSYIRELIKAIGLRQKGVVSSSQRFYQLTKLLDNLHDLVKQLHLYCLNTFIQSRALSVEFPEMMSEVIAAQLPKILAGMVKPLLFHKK
- METHOD: Co-transfection assay, other nuclear receptors: hPR-B
ASSAY_METRIC: pIC50
Just so you know, pIC50 here is -log10 of the concentration in molar units; reply with that number alone.

Input line: GET /values?readout=pIC50&item= "N#Cc1ccc(N2CCC[C@@H]2[C@@H](O)C(F)(F)F)cc1C(F)(F)F"
Output line: 6.55

---

- METHOD: Pharmacokinetics in Sprague Dawley rats, repeat oral administration for 15 days
- Format: in vivo, rat
- ASSAY_SETUP: male, Sprague-Dawley, rat, plasma, po, 3 mg/kg, SD rats, oral gavage, Day 1, 3 mg/kg, Male
ASSAY_METRIC: Tmax (h)
The reply should contain only the number, in h.

Input line: Give the measured Tmax of "N#Cc1ccc(N2CCC[C@@H]2[C@@H](O)C(F)(F)F)cc1C(F)(F)F" .
Output line: 1.2

---

- METHOD: Pharmacokinetics in orchidectomized male rats (plasma, Day 14)
- Format: in vivo
- ASSAY_SETUP: rat, ORX male rats, PO, Day 14, 1 mg/kg
ASSAY_METRIC: Cmax (ng/mL)
Respond with the bare value in ng/mL.

Input line: Param item = "N#Cc1ccc(N2CCC[C@@H]2[C@@H](O)C(F)(F)F)cc1C(F)(F)F" ; retrieve measured Cmax.
Output line: 18

---

- METHOD: Pharmacokinetics in orchidectomized male rats (plasma, Day 14)
- Assay type: in vivo
- ASSAY_SETUP: male, rat, po, 100 mg/kg, ORX male rats, Day 14, 100 mg/kg, 0 hr conc. substituted for 24 hr, read-out: AUC24
ASSAY_METRIC: AUC
Entry format: amount then unit.

Input line: What value of AUC has been recorded for this entry: "N#Cc1ccc(N2CCC[C@@H]2[C@@H](O)C(F)(F)F)cc1C(F)(F)F"
Output line: 4050 ng·h/mL
